# Test system: U2932 cells
# assay-explanation: Real Time Glo viability assay, Betalutin and cell cycle inhibitors (Example 2)
# Type: cell-based, human
# test-conditions: Homo sapiens, U2932, U2932, drug 100 nM, (−)Betalutin, Dy5; read-out: Growth inhibition (signal treated/control; 1 = no change)
attribute-measured: viability at 0.1 µM (%)
Report the figure in % without appending any unit label.

- structure-as-smiles: "C=CCn1c(=O)c2cnc(Nc3ccc(N4CCN(C)CC4)cc3)nc2n1-c1cccc(C(C)(C)O)n1"
  viability at 0.1 µM, %: 92
- structure-as-smiles: "Nc1nc(Nc2ccc(S(N)(=O)=O)cc2)nn1C(=O)c1c(F)cccc1F"
  viability at 0.1 µM, %: 107
- structure-as-smiles: "Cc1nc(N)sc1-c1ccnc(Nc2ccc(N3CCOCC3)cc2)n1"
  viability at 0.1 µM, %: 106

## Input U2932 cells / viability at 0.1 µM / Cc1csc(-c2nnc(Nc3ccc(Oc4ncccc4-c4ccnc(N)n4)cc3)c3ccccc23)c1 : value?
## Output 92

====

# Test system: SUDHL4 cells
# assay-explanation: Alamar Blue cytotoxicity study
# Format: cell-based, human
# test-conditions: Homo sapiens, SU-DHL-4, read-out: IC50 at 120 h; SUDHL-4, 120 h incubation after seeding
# Procedure: Cells were incubated with 0.25, 0.5, 1, 2.5 or 5 μg/ml of Humalutin in cell culture flasks and incubated at 37° C./5% CO2. After 18-20 hours cells were washed and resuspended in fresh medium. Cell bound activity after washing was measured using a calibrated gamma detector (Cobra II auto-gamma detector, Packard Instrument Company, Meriden, Conn., USA). […]
attribute-measured: IC50 (µM)
# output: bare number, implied unit µM

- molecule: "O=C(c1cc(Cc2n[nH]c(=O)c3ccccc23)ccc1F)N1CCN(C(=O)C2CC2)CC1 [olaparib]"
  result-number: 22.1

Next:
## Input Request: IC50, test system SUDHL4 cells, entry CC1(C)CCC(CN2CCN(c3ccc(C(=O)NS(=O)(=O)c4ccc(NCC5CCOCC5)c([N+](=O)[O-])c4)c(Oc4cnc5[nH]ccc5c4)c3)CC2)=C(c2ccc(Cl)cc2)C1 [venetoclax]
## Output 2.42

====

Measured viability at 1 µM of individual entries
# Tested on: U2932 cells
# assay-explanation: Real Time Glo viability assay, Betalutin and cell cycle inhibitors (Example 2)
# Assay type: cell-based, human
# test-conditions: Homo sapiens, U2932, U2932, drug 1 μM, (+)Betalutin, Dy5; read-out: Growth inhibition (signal treated/control; 1 = no change)
Your answer is read as %, so omit the unit and give the number.

The following compounds have reported results that may help.
- structure-as-smiles: "Cc1nc(N)sc1-c1ccnc(Nc2ccc(N3CCOCC3)cc2)n1"
  viability at 1 µM [%]: 74
- structure-as-smiles: "C=CCn1c(=O)c2cnc(Nc3ccc(N4CCN(C)CC4)cc3)nc2n1-c1cccc(C(C)(C)O)n1"
  viability at 1 µM [%]: 89
- structure-as-smiles: "Nc1nc(Nc2ccc(S(N)(=O)=O)cc2)nn1C(=O)c1c(F)cccc1F"
  viability at 1 µM [%]: 16

Next up:
## Input Record request: viability at 1 µM value, item Cc1csc(-c2nnc(Nc3ccc(Oc4ncccc4-c4ccnc(N)n4)cc3)c3ccccc23)c1
## Output 80

====

# System: U2932 cells
# assay-explanation: Real Time Glo viability assay, Betalutin and cell cycle inhibitors (Example 2)
# Format: cell-based, human
# test-conditions: Homo sapiens, U2932, U2932, drug 1 μM, (+)Betalutin, Dy4; read-out: Growth inhibition (signal treated/control; 1 = no change)
attribute-measured: viability at 1 µM (%)
Give the value in % but do not write % after it.

- compound: "Nc1nc(Nc2ccc(S(N)(=O)=O)cc2)nn1C(=O)c1c(F)cccc1F [JNJ-7706621]"
  result-number: 26

## Input viability at 1 µM lookup needed for Cc1csc(-c2nnc(Nc3ccc(Oc4ncccc4-c4ccnc(N)n4)cc3)c3ccccc23)c1 [AMG 900] , thanks.
## Output 77

## Input Report viability at 1 µM for C=CCn1c(=O)c2cnc(Nc3ccc(N4CCN(C)CC4)cc3)nc2n1-c1cccc(C(C)(C)O)n1 [MK-1775] please.
## Output 94

## Input What value of viability at 1 µM has been recorded for this entry: Cc1nc(N)sc1-c1ccnc(Nc2ccc(N3CCOCC3)cc2)n1 [CYC116]
## Output 82

Source of measurements: patent US20210106703A1
